Each record here notes measured z-score.
experiment: osmotic lysis modulators in infected erythrocytes, primary screen, PSAC antagonist project, cell-based, P. falciparum Indochina, OD700, 3 h (AID 1156); details: higher = more signal, called active from +8 up or from −8 down
measure: z-score

{"columns": ["molecule", "measure", "experimental.result"],
 "data": [
  ["CN(C)C(=O)[C@@]1(CCC(=O)OC(C)(C)C)N=C(c2ccc(OCCCO)cc2)O[C@H]1c1ccccc1", "z-score", 1.34],
  ["CCCC[C@@H]1C[C@H]1[C@@H](NC(=O)c1ccc(-c2ccccc2)cc1)c1ccc(-c2ccccc2)cc1", "z-score", 1.68],
  ["[N-]=[N+]=NCc1ccccc1C[C@]1(C(=O)NCC(O)CO)N=C(c2ccc(OCCCO)cc2)O[C@H]1c1ccccc1N=[N+]=[N-] (stereo not given in full)", "z-score", 2.92],
  ["Cc1ccc(S[C@]2(C(=O)NC3CC3)CC(=O)N(C3CCCCC3)[C@@H]2c2ccc(CO)cc2I)cc1", "z-score", -0.0504],
  ["COc1c(C)cc(-c2cc3c(c(-c4ccc(Oc5ccccc5)cc4)n2)[Si](C(C)C)(C(C)C)OC3)cc1C", "z-score", 0.392],
  ["C[C@H]1NC(=O)[C@H](Cc2ccccc2)NC(=O)[C@@]23C(=O)N[C@@H](Cc4ccccc4)C2[C@H](C)[C@@]2(C)O[C@H]2C3/C=C/C/C=C\\CNC1=O (stereo not given in full)", "z-score", -0.112],
  ["CCOC(=O)C[C@H]1[C@H](OC(=O)c2ccccc2-c2ccccc2)[C@@H](NC(=O)c2ccc3ccccc3c2)c2cc(OCCCO)ccc2N1C(=O)c1ccc2ccccc2n1", "z-score", -0.62],
  ["CC(C)(C)OC(=O)CC[C@@]1(C(=O)NCCN2CCOCC2)N=C(c2ccc(OCCCO)cc2)O[C@@H]1c1ccccc1", "z-score", 0.267],
  ["[N-]=[N+]=NCc1ccccc1C[C@]1(C(=O)NCCN2CCOCC2)N=C(c2ccc(OCCCO)cc2)O[C@H]1c1ccccc1N=[N+]=[N-]", "z-score", 2.82],
  ["C=CC(=C)C1=CCO[C@@H]1[C@H]1CCCN1S(=O)(=O)c1ccccc1[N+](=O)[O-]", "z-score", 0.544],
  ["CC(C)C[C@@H]1NC(=O)[C@H]2C[C@@H](C(=O)NCCCCCCNC(=O)CS)[C@@H](c3cccc(OCCO)c3)N2C1=O", "z-score", 2.83],
  ["COc1ccc([Si](C)(C)[C@H]2[C@H](CC(=O)N(CCO)Cc3ccccc3)O[C@@]3(C(=O)N(Cc4cccc(N5CCC5=O)c4)c4ccccc43)[C@@H]2C)cc1", "z-score", -0.614],
  ["C=C[C@H](C)[C@@H](O)c1ccc(O)c2ccccc12", "z-score", 0.0353],
  ["COc1ccc(CCN2C(=O)[C@@]3(Cc4ccccc42)c2ccccc2C(=O)N(Cc2ccccc2Cl)[C@H]3c2ccc(CO)cc2)cc1", "z-score", 0.679],
  ["O=C1C2C=CC(C(O)c3ccc(-c4ccccc4)s3)N(n3cnnc3)C2C(=O)N1Cc1ccccc1 (stereo not given)", "z-score", 0.605]
]}

---

experiment: basal RPMI8226 mitochondrial membrane potential changes, profiling panel, cell-based, JC-1 fluorescence, 24 h, 100 nL compound (AID 1169); details: RPMI8226 myeloma, JC-1 mitochondrial potential fluorescence, higher = more signal; also: test concentration not given here
Assign yes (1) to entries whose z-score meets or exceeds -0.006; assign no (0) to the rest.

{"columns": ["compound", "classification"],
 "data": [
  ["CCCCCCc1nc(CCCc2cc3c(c(CCCCCC)n2)[Si](C(C)C)(C(C)C)OC3)cc2c1[Si](C(C)C)(C(C)C)OC2", "no (0)"],
  ["COc1ccc(C#Cc2ccc3c(c2)[C@]2(C(=O)N3)[C@H](C(=O)NC[C@H](O)c3ccccc3)[C@H]3C(=O)O[C@H](c4ccccc4)[C@H](c4ccccc4)N3[C@@H]2c2ccccc2OCCO)cc1", "no (0)"],
  ["C=CCC(OC(C)=O)[C@@H]1[C@@H](N(Cc2cc3ccccc3o2)C(=O)c2ccc(C)cc2)c2cc(OCCCO)ccc2N1C(=O)c1ccc2ccccc2c1 (some centres not stated)", "yes (1)"],
  ["COCCCNC(=O)[C@@]1(c2ccc([N+](=O)[O-])cc2)CC(=O)N(CC23CC4CC(CC(C4)C2)C3)[C@@H]1c1ccc(CO)cc1", "yes (1)"],
  ["O=C(O)[C@H]1C[C@H]2C(=O)NCC(=O)N2[C@H]1c1ccc(O)cc1", "no (0)"],
  ["CC(=O)NCCCC[C@@H]1NC(=O)[C@@H]2C[C@H](C(=O)NCCCCCCNC(=O)CS)[C@H](c3ccc(O)cc3)N2C1=O", "no (0)"],
  ["COC(=O)C[C@H]1O[C@]2(C(=O)N(Cc3ccccc3)c3ccc(NC(C)=O)cc32)[C@@H](C)[C@@H]1[Si](C)(C)c1ccc(OC)cc1", "no (0)"]
]}
